Where do the numbers come from? From the RNAGym collection of RNA variant scans (doi:10.7554/elife.90254).

B1: LINE1-full (parent)
chain: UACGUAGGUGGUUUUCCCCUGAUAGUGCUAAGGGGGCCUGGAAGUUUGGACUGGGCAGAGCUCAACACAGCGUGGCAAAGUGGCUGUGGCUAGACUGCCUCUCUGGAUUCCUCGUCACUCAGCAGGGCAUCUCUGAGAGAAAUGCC

variants of: B1; assay: self-cleavage, relative activity (ratio to wild type); higher = more cleavage; in vitro, sequencing; the parent is a self-cleaving ribozyme
measure: self-cleavage

Reported self-cleavage ( `UACGUAGGUGGUUUUCCCCUGAUAGUGCUAAGGGGGCCUGGAAGUUUGGACUGGGCCGAGCUCAACACAGCGUGGCAAAGUGGCUGUGGCUAGACUGCCUCUCUGGAUUCCUCGUCACUCAGCAGGGCAUCUCUGAGAGAAAAGCC` ) = 0.22

# self-cleavage (variant: `UACGUAGGUGGUUUUCCCCUGAUAGUGCUAAGGGGGCCUGGAAGUCUGGACUGGGCAGAGCUCAACACAGCGUGGCAAAGUGGCUGUGGCUAGACUGCCUCUCUGGAUUCCUCGUCACUCAGCAGGGCAUCUCUGAGAAAAAUGCC` ) is 1.23
